Tested on: primary neurons transfected with exon 1 of mHtt protein containing 97 poly-glutamines
Assay: Neuronal death assay (primary rodent neuron cellular model of HD, survival by robotic microscopy)
Assay type: cell-based
Conditions: Table 4; dose 50 nM; mHtt neurons, imaged 7 days
If the reported Hazard Ratio equals or exceeds 0.7, assign Criterion met. If not, assign Criterion not met.

[[record]]
compound = "Cc1ccc2c(c1)N(C(=O)CN1CCN(C(C)C)CC1)CCO2 [P]"
measured_on = "primary neurons transfected with exon 1 of mHtt protein containing 97 poly-glutamines"
category = "Criterion met"

[[record]]
compound = "Cc1ccc2c(c1)N(C(=O)CN1CCN(C3CCCCC3)CC1)CCO2 [O]"
measured_on = "primary neurons transfected with exon 1 of mHtt protein containing 97 poly-glutamines"
category = "Criterion not met"

[[record]]
compound = "COCCN1CCN(C(=O)CN2CCOc3ccc(C)cc32)CC1 [R]"
measured_on = "primary neurons transfected with exon 1 of mHtt protein containing 97 poly-glutamines"
category = "Criterion met"

[[record]]
compound = "Cc1ccc2c(c1)N(CC(=O)N1CCN(CCO)CC1)CCO2 [Q]"
measured_on = "primary neurons transfected with exon 1 of mHtt protein containing 97 poly-glutamines"
category = "Criterion not met"

